test protocol: Human Liver Microsome Stability
Type: in vitro ADME
condition set: human liver microsomes 0.5 mg/mL, 37° C., 60 min, read-out: in vitro CLint (microsomal)
measurement name: microsomal CLint at 2 μM

Could you tell me which microsomal CLint at 2 μM is on file for `O=c1cc(CN2CCOc3c(Cl)cc(-n4ccc5cc(F)ccc54)cc3C2)cco1` ?
50 to 100 µL/min/mg

Could you tell me which microsomal CLint at 2 μM is on file for `O=C1CC(CN2CCOc3c(Cl)cc(-n4ccc5cc(F)ccc54)cc3C2)=NN1` ?
50 to 100 µL/min/mg

Could you tell me which microsomal CLint at 2 μM is on file for `Nc1cnc(CN2CCOc3c(Cl)cc(-n4ccc5cc(F)ccc54)cc3C2)cn1` ?
20 to 50 µL/min/mg

Could you tell me which microsomal CLint at 2 μM is on file for `COc1ncc(CN2CCOc3c(Cl)cc(-n4ccc5cc(F)ccc54)cc3C2)cn1` ?
50 to 100 µL/min/mg

Could you tell me which microsomal CLint at 2 μM is on file for `Nc1ncc(CN2CCOc3c(Cl)cc(-n4ccc5cc(F)ccc54)cc3C2)cn1` ?
50 to 100 µL/min/mg

Could you tell me which microsomal CLint at 2 μM is on file for `O=C1NC=C(CN2CCOc3c(Cl)cc(-n4ccc5cc(F)ccc54)cc3C2)CN1` ?
20 to 50 µL/min/mg

Could you tell me which microsomal CLint at 2 μM is on file for O=c1cc(CN2CCOc3c(Cl)cc(-n4ccc5cc(F)ccc54)cc3C2)cc[nH]1 [Ref, reference compound] ?
20 to 50 µL/min/mg

Could you tell me which microsomal CLint at 2 μM is on file for `O=c1ncc(CN2CCOc3c(Cl)cc(-n4ccc5cc(F)ccc54)cc3C2)c[nH]1` ?
< 20 µL/min/mg
